experiment: chemical genetic growth profiling, strain panel (AID 1159580);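 note: tested at 20 µM; growth read once vehicle control cultures reached saturation at 30 °C; 1 = growth at the plate median or of vehicle wells; lower values mean less growth of the strain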; conditions: S. cerevisiae deletion strains, growth OD, locus YPR167C, strain met16, active compounds read low
The whole screen tested about 5,500 compounds, of which about 2,000 (36%) were called active. Roughly 18% stayed inconclusive and do not appear here. Some of the results follow.
# reported normalized growth; entries follow
REPORTED ENDPOINT: normalized growth

>  <COMPOUND>
Cc1cc(C2CCCCC2)n(O)c(=O)c1

>  <REPORTED ENDPOINT>
normalized growth

>  <VALUE MEASURED>
0.0671

$$$$
>  <COMPOUND>
CC(=O)O[C@@H]1CC(=O)[C@@]2(C)C(CC(=O)[C@]3(C)C2CC[C@@]2(C)[C@H](c4ccoc4)OC(=O)C4OC423)C1(C)C (stereo not given in full)

>  <REPORTED ENDPOINT>
normalized growth

>  <VALUE MEASURED>
1.02

$$$$
>  <COMPOUND>
CC1(C)C(=O)C=C[C@@]2(C)C1CC(=O)[C@]1(C)C2CC[C@@]2(C)[C@H](c3ccoc3)OC(=O)[C@H]3O[C@]321 (stereo not given in full)

>  <REPORTED ENDPOINT>
normalized growth

>  <VALUE MEASURED>
1.01

$$$$
>  <COMPOUND>
CC1(C)O[C@H]2CC(=O)OC[C@]23[C@H]2CC[C@@]4(C)[C@H](c5ccoc5)OC(=O)[C@H]5O[C@]54[C@]2(C)C(=O)C[C@@H]13

>  <REPORTED ENDPOINT>
normalized growth

>  <VALUE MEASURED>
0.989

$$$$
>  <COMPOUND>
C[C@@H]([C@H](O)c1ccccc1)N(C)C

>  <REPORTED ENDPOINT>
normalized growth

>  <VALUE MEASURED>
1

$$$$
>  <COMPOUND>
COC(=O)C[C@H]1C(C)(C)C2(Cl)O[C@@]34CC2C(=O)[C@]1(C)C3CC[C@]1(C)C4=CC(=O)O[C@H]1c1ccoc1 (stereo not given in full)

>  <REPORTED ENDPOINT>
normalized growth

>  <VALUE MEASURED>
0.991

$$$$
>  <COMPOUND>
CC1(C)C(=O)C=C[C@@]2(C)C1C[C@@H](O)[C@]1(C)C2CC[C@@]2(C)[C@H](c3ccoc3)OC(=O)[C@H]3O[C@]321 (stereo not given in full)

>  <REPORTED ENDPOINT>
normalized growth

>  <VALUE MEASURED>
0.99

$$$$
>  <COMPOUND>
CN[C@@H]1C(O)[C@@H](O[C@@H]2[C@@H](O)[C@H](O[C@H]3OC(CN)=CC[C@H]3N)[C@@H](N)C[C@H]2N)OC[C@]1(C)O (stereo not given in full)

>  <REPORTED ENDPOINT>
normalized growth

>  <VALUE MEASURED>
0.999

$$$$
>  <COMPOUND>
NC(N)=NC(=O)c1nc(Cl)c(N)nc1N

>  <REPORTED ENDPOINT>
normalized growth

>  <VALUE MEASURED>
1.02

$$$$
>  <COMPOUND>
CCc1cc(C(N)=S)ccn1

>  <REPORTED ENDPOINT>
normalized growth

>  <VALUE MEASURED>
0.989

$$$$
>  <COMPOUND>
CC[n+]1c(-c2ccccc2)c2cc(N)ccc2c2ccc(N)cc21

>  <REPORTED ENDPOINT>
normalized growth

>  <VALUE MEASURED>
0.864

$$$$
>  <COMPOUND>
COc1ccc2c(c1)CCC1C2CC[C@@]2(C)C1CC[C@@H]2O (stereo not given in full)

>  <REPORTED ENDPOINT>
normalized growth

>  <VALUE MEASURED>
0.85

$$$$
>  <COMPOUND>
COc1ccc2c(c1)CCC1C2CCC2(C)C1C[C@@H](O)C2O (stereo not given in full)

>  <REPORTED ENDPOINT>
normalized growth

>  <VALUE MEASURED>
0.991

$$$$
>  <COMPOUND>
CC1(C)C=CC(=O)[C@@]2(C)C1CC(=O)[C@]1(C)C2CC[C@@]2(C)[C@H](c3ccoc3)OC(=O)C3OC321 (stereo not given in full)

>  <REPORTED ENDPOINT>
normalized growth

>  <VALUE MEASURED>
0.986

$$$$
>  <COMPOUND>
CN1C(C)(C)CCCC1(C)C

>  <REPORTED ENDPOINT>
normalized growth

>  <VALUE MEASURED>
0.998

$$$$
>  <COMPOUND>
C[C@]12CCC3c4ccc(OS(=O)(=O)O)cc4CCC3C1CC[C@H]2O (stereo not given in full)

>  <REPORTED ENDPOINT>
normalized growth

>  <VALUE MEASURED>
0.988

$$$$
>  <COMPOUND>
COc1ccc(Cl)cc1C(=O)NCCc1ccc(S(=O)(=O)NC(=O)NC2CCCCC2)cc1

>  <REPORTED ENDPOINT>
normalized growth

>  <VALUE MEASURED>
0.993

$$$$
>  <COMPOUND>
CCN(Cc1ccncc1)C(=O)C(CO)c1ccccc1 (stereo not given)

>  <REPORTED ENDPOINT>
normalized growth

>  <VALUE MEASURED>
0.973

$$$$
>  <COMPOUND>
NC(=O)CN1CCCC1=O

>  <REPORTED ENDPOINT>
normalized growth

>  <VALUE MEASURED>
1

$$$$
>  <COMPOUND>
CC/C(=C(/CC)c1ccc(O)cc1)c1ccc(O)cc1

>  <REPORTED ENDPOINT>
normalized growth

>  <VALUE MEASURED>
1

$$$$

Where do these numbers come from? They come from PubChem BioAssay AID1159580.
